Every entry's value here was drawn from ChEMBL document CHEMBL4011654.

Measured pIC50 values are reported for all entries that follow.
# Test system: HL-60
# Assay notes: Cytotoxicity against human HL60 cells assessed as cell growth inhibition after 48 hrs by MTT assay
# Assay type: functional, cell-based
# Measurement context: HL-60, 48 h
# log scale: pIC50 equals minus log10 of the concentration in mol/L

Enquiry: Query (compound): `C=C(C)[C@@H]1CC[C@]2(COC(=O)CCCC[P+](c3ccccc3)(c3ccccc3)c3ccccc3)CC[C@]3(C)[C@H](CC[C@@H]4[C@@]5(C)CC[C@H](O)C(C)(C)[C@@H]5CC[C@]43C)[C@@H]12.[Br-]` ; field requested: pIC50
Return: 6.22

Enquiry: Query (compound): `C=C(C)[C@@H]1CC[C@]2(COC(=O)CCCC[P+](c3ccccc3)(c3ccccc3)c3ccccc3)CC[C@]3(C)[C@H](CC[C@@H]4[C@@]5(C)CC[C@H](OC(C)=O)C(C)(C)[C@@H]5CC[C@]43C)[C@@H]12` ; field requested: pIC50
Return: 6.24

Enquiry: Query (compound): `C=C(C)[C@@H]1CC[C@]2(C(=O)OC)CC[C@]3(C)[C@H](CC[C@@H]4[C@@]5(C)CC[C@H](OC(=O)CCCC[P+](c6ccccc6)(c6ccccc6)c6ccccc6)C(C)(C)[C@@H]5CC[C@]43C)[C@@H]12` ; field requested: pIC50
Return: 5.51

Enquiry: Query (compound): `C=C(C)[C@@H]1CC[C@]2(C(=O)O)CC[C@]3(C)[C@H](CC[C@@H]4[C@@]5(C)CC[C@H](OC(=O)CCCC[P+](c6ccccc6)(c6ccccc6)c6ccccc6)C(C)(C)[C@@H]5CC[C@]43C)[C@@H]12.[Br-]` ; field requested: pIC50
Return: 6.49

* * *

# Tested on: HL-60
# Assay notes: Cytotoxicity against human HL60 cells assessed as cell growth inhibition after 48 hrs by MTT assay
# Format: functional, cell-based
# Measurement context: HL-60, 48 h
Measured IC50 values are reported for all entries that follow.

Enquiry: Query (molecule): `C=C(C)[C@@H]1CC[C@]2(COC(=O)CCCC[P+](c3ccccc3)(c3ccccc3)c3ccccc3)CC[C@]3(C)[C@H](CC[C@@H]4[C@@]5(C)CC[C@H](OC=O)C(C)(C)[C@@H]5CC[C@]43C)[C@@H]12` ; field requested: IC50
Return: 0.71 µM

Enquiry: Query (molecule): `O=C(O)CCCC[P+](c1ccccc1)(c1ccccc1)c1ccccc1` ; field requested: IC50
Return: 118 µM

Enquiry: Query (molecule): `C=C(C)[C@@H]1CC[C@]2(CO)CC[C@]3(C)[C@H](CC[C@@H]4[C@@]5(C)CC[C@H](O)C(C)(C)[C@@H]5CC[C@]43C)[C@@H]12` ; field requested: IC50
Return: 30.9 µM

Enquiry: Query (molecule): `C=C(C)[C@@H]1CC[C@]2(C(=O)OCC)CC[C@]3(C)[C@H](CC[C@@H]4[C@@]5(C)CC[C@H](OC(=O)CCCC[P+](c6ccccc6)(c6ccccc6)c6ccccc6)C(C)(C)[C@@H]5CC[C@]43C)[C@@H]12` ; field requested: IC50
Return: 2.75 µM

Enquiry: Query (molecule): `C=C(C)[C@@H]1CC[C@]2(C(=O)O)CC[C@]3(C)[C@H](CC[C@@H]4[C@@]5(C)CC[C@H](O)C(C)(C)[C@@H]5CC[C@]43C)[C@@H]12` ; field requested: IC50
Return: 18.5 µM
